- Experimental System: T1, Ebola virus GP with a C-terminal polyhistidine tag (Sino Biologicals, Catalog #40442-V08B1) (Ebola virus, UniProt P87666 33-650)
- T1 construct: also called EbolaGP.his; Ebola virus GP.his
- Protocol Summary: SPR 37C, mAb captured
Outcome Measure: koff (s⁻¹)
Report the value in s⁻¹ with no unit label.

Noted for H1M17357N (antibody, V domains shown, also called HCAF09D11-13) VH: QVQLVQSGAEVKKPGASVKVSCKASGYTFTSYYMHWVRQAPGQGLEWMGIINPSGGSTSYAQKFQGRVTMTRDTSTSTVYMELSSLRSEDTAVYYCAREIGEAGEVFNYWGQGTLVTVSS VL: DIQMTQSPSSLSASVGDRVTITCRASQSISRYLNWYQHKPGKAPKVLIYAASILQSGVPSRFSGSGSGTDFTLTISSLQPEDFATYYCQQSYSTPPITFGQGTRLEIK : its koff reads 0.00184

Given item H1M17354N (antibody, V domains shown, also called HCAF05C08-22) VH: QVQLVQSGAEVKKPGASVKVSCKASGYTFTSYYMHWVRQAPGQGLEWLGIINPSGGSTSYAQKFQGRVTMTRDTSTSTVYMELSSLRSEDTAVYYCARETGEAGEVFNYWGQGTQVTVSS VL: DIQMTQSPSSLSASVGDRVTITCRASQIISRYLNWYQHKPGKAPKVLIYAASTLQSGVPSRFSGSGSGTDFTLTISSLQPEDFATYYCQQSYSTPPITFGQGTRLEIK , the value recorded as its koff is 0.00573

Sourced from patent US20160215040A1
